Where these numbers come from: patent US20100260765A1

Some binders, each annotated with its measured KDR tyrosine phosphorylation in HUVEC, Maximum Inhibition at 100 nM (% Inhibition), N = 1.
# measured target: human KDR (human, UniProt P35968 20-1356)
# Sequence (P35968 20-1356): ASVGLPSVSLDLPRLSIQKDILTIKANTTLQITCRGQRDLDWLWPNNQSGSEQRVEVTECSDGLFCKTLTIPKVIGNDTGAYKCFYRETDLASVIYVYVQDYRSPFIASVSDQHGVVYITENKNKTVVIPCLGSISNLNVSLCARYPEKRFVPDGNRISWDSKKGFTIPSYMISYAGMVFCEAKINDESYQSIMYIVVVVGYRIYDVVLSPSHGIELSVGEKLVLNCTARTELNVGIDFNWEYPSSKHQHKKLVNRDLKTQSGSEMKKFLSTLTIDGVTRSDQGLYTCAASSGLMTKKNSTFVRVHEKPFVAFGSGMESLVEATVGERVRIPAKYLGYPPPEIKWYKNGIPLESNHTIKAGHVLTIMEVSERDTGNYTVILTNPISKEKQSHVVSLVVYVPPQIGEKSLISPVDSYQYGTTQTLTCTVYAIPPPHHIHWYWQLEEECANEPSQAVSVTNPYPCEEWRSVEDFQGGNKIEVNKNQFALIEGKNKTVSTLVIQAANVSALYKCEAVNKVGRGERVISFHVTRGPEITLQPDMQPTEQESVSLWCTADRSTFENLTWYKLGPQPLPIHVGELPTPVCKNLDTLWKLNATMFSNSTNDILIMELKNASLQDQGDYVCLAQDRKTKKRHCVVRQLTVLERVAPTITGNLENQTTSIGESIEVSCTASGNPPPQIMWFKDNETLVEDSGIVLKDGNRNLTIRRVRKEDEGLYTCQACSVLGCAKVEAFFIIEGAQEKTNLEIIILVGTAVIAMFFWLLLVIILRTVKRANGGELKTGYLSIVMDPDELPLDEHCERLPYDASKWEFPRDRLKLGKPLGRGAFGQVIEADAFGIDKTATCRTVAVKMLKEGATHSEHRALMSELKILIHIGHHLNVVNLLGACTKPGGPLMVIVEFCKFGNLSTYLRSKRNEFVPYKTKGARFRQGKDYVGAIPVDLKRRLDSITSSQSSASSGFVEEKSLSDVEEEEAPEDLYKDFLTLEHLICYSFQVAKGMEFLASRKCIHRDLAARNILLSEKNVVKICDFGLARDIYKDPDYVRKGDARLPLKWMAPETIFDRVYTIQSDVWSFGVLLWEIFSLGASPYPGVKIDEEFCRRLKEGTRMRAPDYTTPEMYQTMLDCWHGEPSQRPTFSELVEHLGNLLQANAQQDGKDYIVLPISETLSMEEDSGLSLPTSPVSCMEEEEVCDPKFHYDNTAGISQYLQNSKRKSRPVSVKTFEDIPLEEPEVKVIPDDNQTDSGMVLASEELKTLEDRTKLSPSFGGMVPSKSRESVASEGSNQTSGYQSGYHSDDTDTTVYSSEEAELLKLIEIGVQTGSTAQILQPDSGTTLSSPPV
# assay explanation: cell-based or functional assay
Hey, just the number and the unit after it is fine.

For orientation, consider the following solved cases.
1) 27A3 (antibody, V domains shown, Fully human monoclonal antibody from a XenoMouse hybridoma (IgG2 or IgG4 strain), purified) VH: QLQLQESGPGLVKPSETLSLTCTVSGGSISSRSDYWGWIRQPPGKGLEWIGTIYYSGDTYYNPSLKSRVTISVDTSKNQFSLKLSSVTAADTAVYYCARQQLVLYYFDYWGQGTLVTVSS VL: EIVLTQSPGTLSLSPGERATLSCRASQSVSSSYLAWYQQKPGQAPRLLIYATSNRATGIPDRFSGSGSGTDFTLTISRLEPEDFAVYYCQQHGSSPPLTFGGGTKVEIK | 77%
2) 24B3 (antibody, V domains shown, Fully human monoclonal antibody from a XenoMouse hybridoma (IgG2 or IgG4 strain), purified) VH: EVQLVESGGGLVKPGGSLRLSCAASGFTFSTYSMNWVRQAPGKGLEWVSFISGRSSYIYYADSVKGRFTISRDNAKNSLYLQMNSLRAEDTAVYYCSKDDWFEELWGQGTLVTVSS VL: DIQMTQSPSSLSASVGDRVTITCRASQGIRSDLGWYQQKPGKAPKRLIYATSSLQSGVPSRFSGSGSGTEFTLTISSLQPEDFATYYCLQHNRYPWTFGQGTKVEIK | 78%

What the record says about 21H6 (antibody, V domains shown, Fully human monoclonal antibody from a XenoMouse hybridoma, purified) VH: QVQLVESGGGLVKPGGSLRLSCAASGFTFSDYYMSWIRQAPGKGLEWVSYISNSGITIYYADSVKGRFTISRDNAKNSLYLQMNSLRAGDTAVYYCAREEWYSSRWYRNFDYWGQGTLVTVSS VL: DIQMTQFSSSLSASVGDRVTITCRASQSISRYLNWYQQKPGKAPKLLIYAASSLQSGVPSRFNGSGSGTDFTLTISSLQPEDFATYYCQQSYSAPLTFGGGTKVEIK : KDR tyrosine phosphorylation in HUVEC, Maximum Inhibition at 100 nM (% Inhibition), N = 1 is 81%
